assay_comment: In vivo fluocinolone acetonide levels in rabbit eyes after intravitreal implant
condition_label: vitreous humor, intravitreal implant configuration #29, day 40, read-out: Fluocinolone (ng/mL) in vitreous humor, single eye
Method: The in vivo study was conducted on four rabbits. The fluocinolone-containing implants were surgically implanted into the posterior segment (i.e., the vitreous) of the right eye (OD) and left eye (OS) of each rabbit. The aqueous humor (15-20 μL) and the vitreous humor (150-200 μL) were withdrawn for the first two rabbits, while the sampling for the remaining two rabbits was determined by a sampling schedule wherein the sampling days were days 7, 14, 21, 40, and 60, 90, and 120.
property_label: concentration at 40 day
Reply with a number, then the unit it belongs to.

# query: concentration at 40 day of entry CC1(C)O[C@@H]2C[C@H]3[C@@H]4C[C@H](F)C5=CC(=O)C=C[C@]5(C)[C@@]4(F)[C@@H](O)C[C@]3(C)[C@]2(C(=O)CO)O1 [Fluocinolone acetonide]
44 ng/mL

// data source = patent US9327059B2
